System: HL-60(TB) leukemia
assay.summary: NCI tumour cell line growth inhibition, 48 h
measured.parameter: TGI (µM)
Only the number, expressed in µM, is required.

{"chem.smiles": "Cn1c(=O)c2[nH]c(COc3ccc(C(C)(C)C)cc3)nc2n(C)c1=O", "assayed.target": "HL-60(TB) leukemia", "value.unit": "µM", "TGI": 50.3}

Task: Please indicate TGI recorded for "CCN1/C(=C/C(C)=C/c2sc3ccccc3[n+]2CC)Sc2ccccc21"
Result: 4.78

Task: Please indicate TGI recorded for "CC(=O)Nc1ccc(-c2nnc(SCC(=O)Nc3ccc(C)cc3)o2)cc1"
Result: 64.4

Task: Please indicate TGI recorded for "CSCCCCCCCCCCOc1ccc(C=C2C(=C(C#N)C#N)c3ccccc3C2=C(C#N)C#N)cc1"
Result: 4.34

Task: Please indicate TGI recorded for "CCNCCNc1cc(-c2ccc(F)cc2)c(C#N)c2nc3ccccc3n12"
Result: 4.36

Task: Please indicate TGI recorded for "CCN(CC)CCNc1ccc(C)c2sc3ccc(O)cc3c(=O)c12"
Result: 0.979

----------
Tested on: IGROV1 ovarian
assay.summary: NCI tumour cell line growth inhibition, 48 h; in the data active = GI50 below about 0.43 µM; inactive = the rest
Mark one answer only. Choices: active, inactive

Would you please look over these solved cases?
{"molecule": "FC(F)(F)c1ccc(-c2cnc(Br)nc2NC2CCCCCC2)cc1", "category": "inactive"}
{"molecule": "C=C(C)[C@H]1CC/C(C)=C/CCC(C)C(=O)CC/C(CO)=C\\[C@@H]1O (stereo not given in full)", "category": "inactive"}
{"molecule": "CCSC1=CC(=O)c2ccccc2C1=O", "category": "inactive"}
{"molecule": "c1ccc(-c2nc(N3CCNCC3)c3nc(-c4ccccc4)oc3n2)cc1", "category": "inactive"}
{"molecule": "COc1ccc2c3c(c(OCCCN(C)C)nc2c1)-c1ccc(Cl)cc1C3=O", "category": "inactive"}

Query molecule follows.
Task: Assay outcome for "O=C(/C=C/c1ccco1)Nc1ncc(Cc2ccc(F)cc2)s1" : what was it?
Result: active

----------
Tested on: MOLT-4 leukemia
assay.summary: NCI tumour cell line growth inhibition, 48 h
measured.parameter: TGI

Consider the following illustrative entries.
{"compound": "COc1ccc(C(Nc2ncccn2)c2cc3c(cc2O)OCO3)cc1 (stereo not given)", "TGI": "82 µM"}
{"compound": "CC(C)(C)OC(=O)NC(Cc1ccc([N+](=O)[O-])cc1)C(=O)NC(CCCCNC(=O)OCc1ccccc1)C(=O)ON1C(=O)CCC1=O (stereo not given)", "TGI": "> 100 µM"}
{"compound": "CCC(=O)NCCc1c[nH]c2ccc(OC)cc12", "TGI": "> 100 µM"}
{"compound": "CC1OC(=O)c2ccccc2NC1=O (stereo not given)", "TGI": "> 100 µM"}

# next compound below
Task: Please indicate TGI recorded for C=C(C)[C@H]1CC/C(C)=C/CCC(C)C(=O)CC/C(CO)=C\[C@@H]1O (stereo not given in full)
Result: > 100 µM

----------
Tested on: UACC-62 melanoma
assay.summary: NCI tumour cell line growth inhibition, 48 h
measured.parameter: log10 of TGI (log10 of the value in µM)
# log10 transformed; quantity=TGI; unit=µM

{"molecule": "COc1cc(C2C(C#N)=C(N)OC3=C2C(=O)c2ccccc2C3=O)cc(OC)c1OC (centres undefined)", "readout.number": 0.31}
{"molecule": "CSc1c(C#N)c2n(c3ccccc3[n+]2C)c2ncccc12", "readout.number": 1.59}
{"molecule": "CC1=C2C(c3ccccc3)(c3ccccc3)C3C=CC2(C=N3)N(C(=O)NC2CCCCC2)C1=O (centres undefined)", "readout.number": 1.52}
{"molecule": "Cc1cc(C)nc(NS(=O)(=O)c2ccc(NC(=O)c3cccc4cc5ccccc5nc34)cc2)n1", "readout.number": 1.90}
{"molecule": "Cc1cn(C2CC(N=[N+]=[N-])C(CO[Si](C)(C)C(C)(C)C)O2)c(=O)[nH]c1=O (centres undefined)", "readout.number": 1.47}
{"molecule": "COc1cc2c(cc1OC)C(Cl)C(c1cc(OC)c(OC)c(OC)c1)=C2Cl (centres undefined)", "readout.number": 1.46}
{"molecule": "O=C(/C=C/c1ccc(O)c(O)c1)OCCOC(=O)/C=C/c1ccc(O)c(O)c1", "readout.number": 1.55}
{"molecule": "CC1=C(C(=O)OC(C)C)C(c2ccccc2[N+](=O)[O-])C(C(=O)OC(CO[N+](=O)[O-])CO[N+](=O)[O-])=C(C)N1 (centres undefined)", "readout.number": 0.91}

Task: Please indicate log10 of TGI recorded for "Cc1[nH]c2ccccc2c1C=Nc1ccc(Oc2ccccc2)cc1"
Result: 1.51

Task: Please indicate log10 of TGI recorded for "CC(C)(C)CC(C)(C)c1ccc(OCCOCCSC(=N)N)cc1"
Result: 0.51
